- testTarget: Thyrotropin-releasing hormone receptor (Homo sapiens) (UniProt P34981)
- Sequence (P34981 whole entry, looked up): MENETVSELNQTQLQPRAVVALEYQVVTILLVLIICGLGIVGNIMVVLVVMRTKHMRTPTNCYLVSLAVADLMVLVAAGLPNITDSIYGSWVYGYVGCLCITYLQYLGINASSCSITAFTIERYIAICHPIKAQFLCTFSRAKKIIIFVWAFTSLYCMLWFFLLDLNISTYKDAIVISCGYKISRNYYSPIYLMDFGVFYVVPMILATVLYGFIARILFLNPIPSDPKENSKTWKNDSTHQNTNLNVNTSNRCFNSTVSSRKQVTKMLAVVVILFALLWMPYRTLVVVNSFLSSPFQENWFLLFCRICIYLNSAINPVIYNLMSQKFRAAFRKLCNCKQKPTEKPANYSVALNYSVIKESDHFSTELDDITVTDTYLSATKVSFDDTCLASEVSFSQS
- methodDescription: qHTS assay to identify small molecule antagonists of the thyrotropin-releasing hormone receptor (TRHR) signaling pathway (AID 1346877); also: % is scaled to controls: 0 for no effect and ±100 for the full control effect
- runParameters: TRHR-HEK293, TRH-induced calcium fluorescence, antagonist mode; series mostly up to 51.3 µM
Calls of active or inactive are those of the source. Calls follow the shape of the dose curve; as a rule, active = well fitted inhibition curve with a large enough effect in the repeat runs (not every such curve was filed as active); inconclusive = weak or mixed curves; inactive = flat fitted curve, though single readings scatter.
reportedProperty: activity, negative = inhibition

Worked examples, 5 compounds total:
CCOc1cc(NC(C)=O)ccc1C(=O)OC
inactive
N[C@@H](CCC(=O)Nc1ccc([N+](=O)[O-])cc1)C(=O)O
inactive
CC(C)NCC(O)COc1ccc(COCCOC(C)C)cc1 (stereo not drawn)
inactive
COc1ccc(S(=O)(=O)N2c3ccc(Cl)cc3[C@@](O)(c3ccccc3Cl)[C@H]2C(=O)N2CCC[C@@H]2C(N)=O)cc1OC
inactive
CCOC(=O)c1ccc(OC(=O)CCCCCN=C(N)N)cc1
inactive

Query: Field request: activity, negative = inhibition | item: Cc1ccc(C=O)cc1C
Result: inactive

Query: Field request: activity, negative = inhibition | item: CC1(CO)CN(c2ccccc2)NC1=O (stereo not drawn)
Result: inactive

Query: Field request: activity, negative = inhibition | item: Nc1ncnc(Nc2ccccc2)n1
Result: inactive

----------
- testTarget: Cytochrome P450 2D6 (Homo sapiens)
- methodDescription: Cytochrome P450 Family 2 Subfamily D Member 6 (CYP2D6) small molecule antagonists: luciferase reporter qHTS assay (AID 1671196); also: nearly all actives have a fitted effect of over 50% in size
- runParameters: P450-Glo CYP2D6 enzyme assay, luciferin luminescence, 1 h; series mostly up to 115 µM
Results filed as inconclusive are left out. Activity calls are given as the source filed them. The call rests on the fitted dose curve; in most records, active means well fitted inhibition curve with a large enough effect in the repeat runs; inconclusive means weak or mixed curves; inactive means no such curve, though single readings can be large or run the other way.
Lab note: assign the record to one of active, inactive

Worked examples, 3 compounds total:
COc1ccc2nc(SCc3ncc(C)c(OC)c3C)[nH]c2c1
active
CC(=O)CCCCn1c(=O)c2c(ncn2C)n(C)c1=O
inactive
CCCCCOC(=O)CCC
inactive

Query: Can you look up the reported call for Cc1ccc(S(=O)(=O)O)c(C)c1 for me?
Result: inactive

Query: Can you look up the reported call for BrCCCCCBr for me?
Result: inactive

Query: Can you look up the reported call for O=C(OCC(COC(=O)c1cccnc1)(COC(=O)c1cccnc1)COC(=O)c1cccnc1)c1cccnc1 for me?
Result: inactive

Query: Can you look up the reported call for CCCC(=O)C(C)=O for me?
Result: inactive

Query: Can you look up the reported call for ClCCCl for me?
Result: inactive

Query: Can you look up the reported call for CN1C(C)(C)CCCC1(C)C for me?
Result: active

Query: Can you look up the reported call for CCNC(=O)C1CC(C)CCC1C(C)C (centres undefined) for me?
Result: inactive

----------
- methodDescription: Caspase-3/7 induction in HepG2 cells by small molecules, qHTS assay (AID 1346978); also: % is scaled to controls: 0 for no effect and ±100 for the full control effect; nearly all actives have a fitted effect of over 15% in size
- runParameters: HepG2 caspase-3/7 activation, Caspase-Glo luminescence, 17 h; series mostly up to 92.4 µM
Records with an inconclusive call do not appear. Active and inactive are the calls of the source. Calls follow the shape of the dose curve; as a rule, active = well fitted activation curve with a large enough effect in the repeat runs; inconclusive = weak or mixed curves; inactive = flat fitted curve, though single readings scatter.
reportedProperty: caspase activation

Worked examples, 5 molecules total:
CC(C)CCCCOC(=O)c1ccccc1C(=O)OCCCCC(C)C
inactive
NCCS
inactive
Cc1ccc(C=O)cc1C
inactive
Cc1ccccc1OCC(O)CO (stereo not drawn)
inactive
Nc1ccc2cc(S(=O)(=O)O)cc(O)c2c1
inactive

Query: Field request: caspase activation | item: CNS(=O)(=O)CCc1ccc2[nH]cc(C3CCN(C)CC3)c2c1
Result: inactive

Query: Field request: caspase activation | item: CN1CCN(CC(=O)N2c3ccccc3C(=O)Nc3cccnc32)CC1
Result: -1.35% [at 8.39 µM] (inactive)

Query: Field request: caspase activation | item: N[C@@H](CCC(=O)Nc1ccc([N+](=O)[O-])cc1)C(=O)O
Result: inactive

Query: Field request: caspase activation | item: C[C@@H](O)[C@H]1C(=O)N2C(C(=O)O)=C(SCCN=CN)C[C@H]12
Result: inactive

Query: Field request: caspase activation | item: CCCOC(OCCC)OCCC
Result: inactive

Query: Field request: caspase activation | item: O=Cc1ccc(Cl)c(Cl)c1
Result: inactive

Query: Field request: caspase activation | item: CC(C)(C)c1cc(CCC(=O)NN)cc(C(C)(C)C)c1O
Result: inactive

Query: Field request: caspase activation | item: COC(=O)CCc1ccc(OCC(O)CNC(C)C)cc1 (stereo not drawn)
Result: inactive

Query: Field request: caspase activation | item: CC(C)CCCC(C)(C)O
Result: inactive

Query: Field request: caspase activation | item: C=CC(OCC)OCC
Result: inactive

Query: Field request: caspase activation | item: CCc1ccc(C=O)cc1
Result: inactive

----------
- testTarget: Cytochrome P450 2C9 (Homo sapiens) (UniProt P11712)
- Sequence (P11712 whole entry, looked up): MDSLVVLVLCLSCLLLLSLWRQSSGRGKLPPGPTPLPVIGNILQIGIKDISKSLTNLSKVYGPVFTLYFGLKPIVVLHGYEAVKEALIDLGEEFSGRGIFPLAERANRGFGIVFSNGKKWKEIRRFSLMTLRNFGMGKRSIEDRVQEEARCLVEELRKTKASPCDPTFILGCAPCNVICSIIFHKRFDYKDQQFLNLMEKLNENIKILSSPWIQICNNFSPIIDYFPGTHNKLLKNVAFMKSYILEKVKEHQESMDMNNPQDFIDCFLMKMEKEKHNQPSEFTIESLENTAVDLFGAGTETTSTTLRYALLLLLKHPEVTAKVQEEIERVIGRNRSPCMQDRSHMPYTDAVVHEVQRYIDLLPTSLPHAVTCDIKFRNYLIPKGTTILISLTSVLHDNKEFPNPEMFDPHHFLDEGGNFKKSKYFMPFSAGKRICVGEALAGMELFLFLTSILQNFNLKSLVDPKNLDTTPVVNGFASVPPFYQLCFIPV
- methodDescription: Cytochrome P450 Family 2 Subfamily C Member 9 (CYP2C9) small molecule antagonists: luciferase reporter qHTS assay (AID 1671198); also: nearly all actives have a fitted effect of over 50% in size
- runParameters: P450-Glo CYP2C9 enzyme assay, luciferin luminescence; series mostly up to 115 µM
- Source text: U.S. Tox21 Program National Center for Advancing Translational Sciences [NCATS] U.S. Environmental Protection Agency [EPA] National Institutes of Environmental Health Sciences [NIEHS] National Toxicology Program [NTP] U.S. Food and Drug Administration [FDA] […] The luciferin products formed are detected with a luciferin detection reagent, and the amount of light produced is proportional to CYP activity. […]
Inconclusive results are not listed. Active and inactive are the calls of the source. Calls come from the whole dose curve; as a rule, active = well fitted inhibition curve with a large enough effect in the repeat runs; inconclusive = weak or mixed curves; inactive = no such curve, though single readings can be large or run the other way.
Lab note: assign the record to one of yes for active, no for inactive

Worked examples, 3 compounds total:
CC(C)CC(C)CC(C)CC(C)COC(=O)c1ccccc1C(=O)OCC(C)CC(C)CC(C)CC(C)C (centres undefined)
yes
CC(=C(CCOC(=O)C(C)C)SSC(CCOC(=O)C(C)C)=C(C)N(C=O)Cc1cnc(C)nc1N)N(C=O)Cc1cnc(C)nc1N
no
O=C1CCCC(=O)O1
yes

Query: Can you look up the reported call for O=C(O)Cc1cn(-c2ccccc2)nc1-c1ccc(Cl)cc1 for me?
Result: yes

Query: Can you look up the reported call for CC(C)N(c1ccccc1)C(C)C for me?
Result: no

Query: Can you look up the reported call for CCCCCCCCCC(C)=O for me?
Result: no

Query: Can you look up the reported call for O=C(/N=N/C(=O)OCc1ccccc1)OCc1ccccc1 for me?
Result: yes

Query: Can you look up the reported call for COc1ccc2nc(SCc3ncc(C)c(OC)c3C)[nH]c2c1 for me?
Result: yes

----------
- methodDescription: qHTS assay to identify small molecule agonists of the sonic hedgehog signaling (Shh) pathway - cell viability counter screen (AID 1259366); also: % is scaled to controls: 0 for no effect and ±100 for the full control effect; nearly all actives have a fitted effect of over 50% in size
- runParameters: NIH/3T3 Gli1-Luc viability, CellTiter-Fluor, 24 h; series mostly up to 92.4 µM
Inconclusive results are not listed. The source made the active and inactive calls. Calls follow the shape of the dose curve; as a rule, active = well fitted cell-killing curve with a large enough effect in the repeat runs; inconclusive = weak or mixed curves, or effect the other way; inactive = flat fitted curve, though single readings scatter.
reportedProperty: viability change, negative = cytotoxic

Worked examples, 6 compounds total:
O=Cc1ccc(Cl)c(Cl)c1
inactive
COc1ccc2nc(SCc3ncc(C)c(OC)c3C)[nH]c2c1
inactive
CN(C)C(=O)CNC(=O)Cc1ccccc1
inactive
CCCN1C[C@H](CSC)C[C@@H]2c3cccc4[nH]cc(c34)C[C@H]21
inactive
COc1ccc(Br)c(C)c1
inactive
O=C(NCCN1CCOCC1)c1ccc(Cl)cc1
inactive

Query: Field request: viability change, negative = cytotoxic | item: CCC(CC)CO
Result: inactive

Query: Field request: viability change, negative = cytotoxic | item: Cc1c(I)c(=O)n(-c2ccccc2)n1C
Result: inactive

Query: Field request: viability change, negative = cytotoxic | item: CCC(C)NC(N)=O (centres undefined)
Result: inactive

Query: Field request: viability change, negative = cytotoxic | item: CC(=O)Nc1ccc(S(=O)(=O)Cl)cc1
Result: inactive

Query: Field request: viability change, negative = cytotoxic | item: CCCCC(CC)COCCO (centres undefined)
Result: inactive

----------
- methodDescription: qHTS assay to identify small molecule antagonists of the estrogen receptor alpha (ER-alpha) signaling pathway using the BG1 cell line (AID 743080);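 also: BG1 cells stimulated with 17beta-estradiol alongside compound; % is scaled to controls: 0 for no effect and ±100 for the full control effect; nearly all actives have a fitted effect of over 25% in size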
- runParameters: BG1Luc4E2 ERE-luciferase antagonist mode, luminescence; series mostly up to 70.3 µM
Results filed as inconclusive are left out. The source made the active and inactive calls. The call rests on the fitted dose curve.
Lab note: assign the record to one of Y (active), N (inactive)

COC(=O)CCCCCCCC(=O)OC
N

Alright, here's another compound for you.
Query: Can you look up the reported call for CC(C)NCC(O)COc1ccc(COCCOC(C)C)cc1 (configuration not stated) for me?
Result: N

----------
- methodDescription: qHTS assay to identify small molecule antagonists of the retinoid-related orphan receptor gamma (ROR-gamma) signaling pathway - cell viability counter screen (AID 1159520); also: % is scaled to controls: 0 for no effect and ±100 for the full control effect; nearly all actives have a fitted effect of over 50% in size
- runParameters: Tet-on RORgamma CHO cells viability, ATP luminescence, 16 h; series mostly up to 92.4 µM
Records with an inconclusive call do not appear. Activity calls are given as the source filed them. Calls come from the whole dose curve; as a rule, active = well fitted cell-killing curve with a large enough effect in the repeat runs; inconclusive = weak or mixed curves, or effect the other way; inactive = no such curve, though single readings can be large or run the other way.
reportedProperty: activity, negative = cytotoxicity

Worked examples, 8 compounds total:
CCOc1cc(NC(C)=O)ccc1C(=O)OC
inactive
CCCCOCCOC(=O)COc1nc(Cl)c(Cl)cc1Cl
inactive
CC(=O)NCCCCCC(=O)O
inactive
On1nnc2ccccc21
inactive
BrCc1cccc(Oc2ccccc2)c1
inactive
CCCOC(=O)C(C)O (stereo not given)
inactive
OC[C@H](Cc1cccc(O)c1)[C@H](CO)Cc1cccc(O)c1
inactive
C=Cc1ccccn1
inactive

Query: Field request: activity, negative = cytotoxicity | item: Cc1ccc2c(c1)OCC(=O)CO2
Result: inactive

Query: Field request: activity, negative = cytotoxicity | item: NC(CO)C(=O)NNCc1ccc(O)c(O)c1O (stereo not given)
Result: inactive

Query: Field request: activity, negative = cytotoxicity | item: CCOC(=O)[C@H](CCc1ccccc1)N[C@@H](C)C(=O)N1C(=O)N(C)C[C@H]1C(=O)O
Result: inactive

Query: Field request: activity, negative = cytotoxicity | item: O=C(O)c1ccc(Cl)cc1Cl
Result: inactive

Query: Field request: activity, negative = cytotoxicity | item: CCCCCCCC/C=C\CCCCCCCC(=O)OCCCC
Result: -6.58% [at 19 µM] (inactive)

Query: Field request: activity, negative = cytotoxicity | item: CCN1CCc2nc(N)oc2CC1
Result: inactive

Query: Field request: activity, negative = cytotoxicity | item: C=CC(OCC)OCC
Result: inactive
